Values were extracted from paper PMC11134608.

# Tested on: ER reporter (E3 ligase dependence)
# PROTOCOL TEXT: Targeted CRISPR screens, ER reporter K562 cells: E3 ligase used
# Assay type: cell-based, human
# MEASUREMENT PARAMETERS: Supplemental Table S2
TEST READOUT: E3 Ligase (Table S2)

Guide cases for E3 Ligase (Table S2), answers given:
INSERT INTO measurements (smiles_entry, study_system, test_readout, result) VALUES
  ('O=C1CC[C@H](N2Cc3cc(N4CCN(CC5CCN(c6ccc([C@@H]7c8ccc(O)cc8CC[C@@H]7c7ccccc7)cc6)CC5)CC4)ccc3C2=O)C(=O)N1', 'ER reporter (E3 ligase dependence)', 'E3 Ligase (Table S2)', 'CRBN'),
  ('C[C@@H]1Cc2c([nH]c3ccccc23)[C@@H](c2c(F)cc(/C=C/C(=O)O)cc2F)N1CC(C)(C)F', 'ER reporter (E3 ligase dependence)', 'E3 Ligase (Table S2)', 'UBR5'),
  ('CCN(CCCCCOCC(=O)N[C@H](C(=O)N1C[C@H](O)C[C@H]1C(=O)N[C@@H](C)c1ccc(-c2scnc2C)cc1)C(C)(C)C)CCOc1ccc(C(=O)c2c(-c3ccc(O)cc3)sc3cc(O)ccc23)cc1', 'ER reporter (E3 ligase dependence)', 'E3 Ligase (Table S2)', 'VHL'),
  ('CC(F)(F)c1cc(F)ccc1-c1sc2cc(O)ccc2c1Oc1ccc(/C=C/C(=O)O)cc1', 'ER reporter (E3 ligase dependence)', 'E3 Ligase (Table S2)', 'UBR5');

Switching to the query record.
Prompt line: Provide only the value of recorded E3 Ligase (Table S2) for CC/C(=C(/c1ccc(/C=C/C(=O)O)cc1)c1ccc2[nH]ncc2c1)c1ccc(F)cc1Cl
Response line: UBR5
